assay: Solubility determination in water; type: physicochemical; details: 25° C., semi-quantitative
outcome.measure: solubility

COC(=O)C[C@](O)(CCCC(C)(C)O)C(=O)O[C@@H]1C(OC)=C[C@]23CCCN2CCc2cc4c(cc2[C@H]13)OCO4; < 100 mg/mL

----------
tested on: K562 cell line; assay: Testing on K562 leukemia cell line (MTT cytotoxicity); type: cell-based, human; conditions: K562 cells, 72 h incubation, preliminary screening, read-out: K562 (CML) IC50
pIC50: −log10 of the molar value.
Parameter: pIC50. Scope: all listed entries.
outcome.measure: pIC50

COC(=O)CC(O)(CCCC(C)(C)O)C(=O)O[C@@H]1C(OC)=C[C@]23CCCN2CCc2cc4c(cc2[C@H]13)OCO4.O=C(O)c1ccc(-c2ccc3cc(O)c(C45CC6CC(CC(C6)C4)C5)cc3c2)cc1 (stereo partly shown); > 7.30
CC(=Cc1ccc(C(=O)O)cc1)c1ccc2c(c1)C(C)(C)CCC2(C)C.COC(=O)CC(O)(CCCC(C)(C)O)C(=O)OC1C(OC)=CC23CCCN2CCc2cc4c(cc2C13)OCO4 (stereo not shown) [Example 13, homoharringtonine arotinoate]; > 7.30
CC(=Cc1ccc(C(=O)O)cc1)c1ccc2c(c1)C(C)(C)CCC2(C)C.COC(=O)CC(O)(CCC(C)(C)O)C(=O)OC1C(OC)=CC23CCCN2CCc2cc4c(cc2C13)OCO4 (stereo not shown) [Example 14, harringtonine arotinoate]; > 7.00
COC(=O)C[C@](O)(CCCC(C)(C)O)C(=O)O[C@@H]1C(OC)=C[C@]23CCCN2CCc2cc4c(cc2[C@H]13)OCO4.COc1ccc(-c2ccc3cc(C(=O)O)ccc3c2)cc1C12CC3CC(CC(C3)C1)C2 [Example 8, homoharringtonine "adapalenoate"]; > 7.30
